Biological target: UniProt:P25103
Assay: Affinity for human Neurokinin 1 (NK1) receptor expressed in CHO cells at 1 uM
Format: cell-based
ASSAY ENDPOINT: inhibition (%)

These solved cases illustrate the format of a correct answer.
COMPOUND | UNITS SYMBOL | inhibition
CO/N=C(\COCc1ccc2ccccc2c1)C(CCN1CCC(O)(c2ccccc2)CC1)c1ccc(Cl)c(Cl)c1 (centres undefined) | % | 37
CO/N=C(\COCc1ccc2nonc2c1)C(CCN1CCC(O)(c2ccccc2)CC1)c1ccc(Cl)c(Cl)c1 (centres undefined) | % | 29

1 = CO/N=C(\COC/C=C/c1cc(C(F)(F)F)cc(C(F)(F)F)c1)C(CCN1CCC(O)(c2ccccc2)CC1)c1ccc(Cl)c(Cl)c1 (centres undefined)
2 = CO/N=C(\COCC12CC3CC(CC(C3)C1)C2)C(CCN1CCC(O)(c2ccccc2)CC1)c1ccc(Cl)c(Cl)c1 (centres undefined)
Just tell me: smaller inhibition value, 1 or 2 ? # respond with the chosen item's label 2

###

Biological target: Substance-P receptor (Homo sapiens)
Assay: Affinity for human Neurokinin 1 (NK1) receptor expressed in CHO cells at 1 uM
Format: cell-based
ASSAY ENDPOINT: inhibition (%)

These solved cases illustrate the format of a correct answer.
COMPOUND | UNITS SYMBOL | inhibition
CO/N=C(\CO/C=C/c1cc(C(F)(F)F)cc(C(F)(F)F)c1)C(CCN1CCC(O)(c2ccccc2)CC1)c1ccc(Cl)c(Cl)c1 (stereo unspecified) | % | 20
CO/N=C(\COCc1cc(C(C)(C)C)cc(C(C)(C)C)c1)C(CCN1CCC(O)(c2ccccc2)CC1)c1ccc(Cl)c(Cl)c1 (stereo unspecified) | % | 19
CO/N=C(\COCc1ccc(C)cc1)C(CCN1CCC(O)(c2ccccc2)CC1)c1ccc(Cl)c(Cl)c1 (stereo unspecified) | % | 48
CO/N=C(\COCc1ccccc1)C(CCN1CCC(O)(c2ccccc2)CC1)c1ccc(Cl)c(Cl)c1 (stereo unspecified) | % | 33

I = CO/N=C(\COCc1ccc2ccc(C(F)(F)F)nc2c1)C(CCN1CCC(O)(c2ccccc2)CC1)c1ccc(Cl)c(Cl)c1 (stereo unspecified)
II = CO/N=C(\COCc1ccccc1C)C(CCN1CCC(O)(c2ccccc2)CC1)c1ccc(Cl)c(Cl)c1 (stereo unspecified)
When their inhibition values are compared, which is larger, I or II ? # respond with the chosen item's label II
(II: 34%, I: 23%)

###

Target: Substance-P receptor (Homo sapiens, UniProt P25103)
Sequence (P25103 whole entry): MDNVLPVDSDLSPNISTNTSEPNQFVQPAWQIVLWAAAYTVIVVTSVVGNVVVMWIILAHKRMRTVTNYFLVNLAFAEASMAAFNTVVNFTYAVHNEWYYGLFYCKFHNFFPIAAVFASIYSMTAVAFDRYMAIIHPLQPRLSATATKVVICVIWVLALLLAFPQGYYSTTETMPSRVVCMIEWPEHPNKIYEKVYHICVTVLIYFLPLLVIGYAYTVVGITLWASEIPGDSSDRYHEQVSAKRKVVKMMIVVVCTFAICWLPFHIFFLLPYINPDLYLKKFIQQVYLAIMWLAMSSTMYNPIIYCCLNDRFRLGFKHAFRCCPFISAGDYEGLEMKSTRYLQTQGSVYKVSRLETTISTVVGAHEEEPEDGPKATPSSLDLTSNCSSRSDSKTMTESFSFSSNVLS
Assay: Affinity for human Neurokinin 1 (NK1) receptor expressed in CHO cells at 1 uM
Type: cell-based
ASSAY ENDPOINT: inhibition (%)

MOLECULE | inhibition / %
CO/N=C(\COCc1ccc(-c2ccccc2)cc1)C(CCN1CCC(O)(c2ccccc2)CC1)c1ccc(Cl)c(Cl)c1 (centres undefined) | 2

P = CO/N=C(\COCc1ccc2sc(C)nc2c1)C(CCN1CCC(O)(c2ccccc2)CC1)c1ccc(Cl)c(Cl)c1 (centres undefined)
Q = CO/N=C(\COCC1CCCCC1)C(CCN1CCC(O)(c2ccccc2)CC1)c1ccc(Cl)c(Cl)c1 (centres undefined)
When their inhibition values are compared, which is larger, P or Q ? # respond with the chosen item's label P

###

Target: Substance-K receptor (Homo sapiens)
Sequence (P21452 whole entry): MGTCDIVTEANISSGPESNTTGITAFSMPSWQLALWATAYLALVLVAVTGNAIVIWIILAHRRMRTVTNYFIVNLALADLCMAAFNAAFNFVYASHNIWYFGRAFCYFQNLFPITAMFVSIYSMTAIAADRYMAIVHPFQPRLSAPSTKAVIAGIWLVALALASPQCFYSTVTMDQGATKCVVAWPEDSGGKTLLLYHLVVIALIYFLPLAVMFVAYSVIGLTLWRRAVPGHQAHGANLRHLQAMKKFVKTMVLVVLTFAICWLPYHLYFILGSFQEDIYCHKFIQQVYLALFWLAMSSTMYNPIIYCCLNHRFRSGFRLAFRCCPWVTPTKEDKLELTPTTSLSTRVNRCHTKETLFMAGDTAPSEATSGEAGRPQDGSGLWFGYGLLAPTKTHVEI
Assay: Binding affinity test against Neurokinin 2 (NK2) receptor
ASSAY ENDPOINT: Ki (nM)

These solved cases illustrate the format of a correct answer.
COMPOUND | TARGET DESC | UNITS SYMBOL | Ki
CO/N=C(\CCCc1cc(C(F)(F)F)cc(C(F)(F)F)c1)C(CCN1CCC(O)(c2ccccc2)CC1)c1ccc(Cl)c(Cl)c1 (stereo not drawn) | Substance-K receptor (Homo sapiens) | nM | 332
CO/N=C(\CN(C)C(=O)c1cc(C)cc(C)c1)C(CCN1CCC(O)(c2ccccc2)CC1)c1ccc(Cl)c(Cl)c1 (stereo not drawn) | Substance-K receptor (Homo sapiens) | nM | 2

I = CO/N=C(\CN(C)C(=O)c1cc(OC)c(Br)c(OC)c1)C(CCN1CCC(O)(c2ccccc2)CC1)c1ccc(Cl)c(Cl)c1 (stereo not drawn)
II = CO/N=C(\COC/C=C/c1cc(C(F)(F)F)cc(C(F)(F)F)c1)C(CCN1CCC(O)(c2ccccc2)CC1)c1ccc(Cl)c(Cl)c1 (stereo not drawn)
III = CO/N=C(\COCC1CCCCC1)C(CCN1CCC(O)(c2ccccc2)CC1)c1ccc(Cl)c(Cl)c1 (stereo not drawn)
IV = CO/N=C(\CO/C=C/c1cc(C(F)(F)F)cc(C(F)(F)F)c1)C(CCN1CCC(O)(c2ccccc2)CC1)c1ccc(Cl)c(Cl)c1 (stereo not drawn)
Arrange the 4 compounds by rising Ki, starting with the smallest. # answer = labels listed in requested order I, III, II, IV

// data source = ChEMBL document CHEMBL1135364
